Assay: inhibition of 3D7 malaria parasite growth – strain 3D7 (AID 2306);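 also: 0% = DMSO wells and 100% = chloroquine plus artemisinin control wells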
Conditions: P. falciparum 3D7 erythrocytic growth, LDH absorbance, 72 h; at 2 µM; active compounds read high
Field: growth inhibition. Provide a value for each of the compounds that follow.
Answers are plain numbers, in %.

Please review the entries below; each comes with its answer.
compound=COc1ccc2[nH]cc(C3CCN(CCCCCNC(=O)c4ccc(-c5ccccc5)cc4)CC3)c2c1 reportedmetric="growth inhibition" recordednumber=96
compound=COc1cc(Cc2cnc(N)nc2N)cc(OCCn2ccccc2=O)c1OC reportedmetric="growth inhibition" recordednumber=97

List growth inhibition for every entry below, keeping the order given.
1. NC(N)=NN=CC(=O)Nc1ccc(Cl)cc1
2. C=CCc1cc(Cc2cnc(N)nc2N)cc(CCC)c1O
3. Cc1nc(-c2cccc(Nc3nccc(NCC(O)c4ccccc4)n3)c2)cs1 (stereo not given)
4. NC1=NC(c2ccccc2)(c2ccccc2)C(=O)N1CCCCc1ccccc1

Response:
[101, 90, 99, 96]

List growth inhibition for every entry below, keeping the order given.
1. O=C(Nc1cccc(CN2CCCN(Cc3ccc(O)cc3)CC2)c1)c1cccc(F)c1
2. O=C(Nc1ccc(C(F)(F)F)cc1)c1ccc(S(=O)(=O)NC2CCN(CC3CCCCC3)C2)cc1 (stereo not given)
3. O=S(=O)(Nc1cccc(CCN2CCC(N3CCCCC3)CC2)c1)c1ccc(Cl)cc1
4. CCCCCC(=O)NCC(NCCCNc1cc(=O)c2ccccc2[nH]1)c1cc(Br)cc(Br)c1 (stereo not given)

Response:
1: 92; 2: 99; 3: 94; 4: 96

These entries and their values trace back to PubChem BioAssay.
